Biological target: Cannabinoid receptor 2 (Homo sapiens, UniProt P34972)
Sequence (P34972 whole entry): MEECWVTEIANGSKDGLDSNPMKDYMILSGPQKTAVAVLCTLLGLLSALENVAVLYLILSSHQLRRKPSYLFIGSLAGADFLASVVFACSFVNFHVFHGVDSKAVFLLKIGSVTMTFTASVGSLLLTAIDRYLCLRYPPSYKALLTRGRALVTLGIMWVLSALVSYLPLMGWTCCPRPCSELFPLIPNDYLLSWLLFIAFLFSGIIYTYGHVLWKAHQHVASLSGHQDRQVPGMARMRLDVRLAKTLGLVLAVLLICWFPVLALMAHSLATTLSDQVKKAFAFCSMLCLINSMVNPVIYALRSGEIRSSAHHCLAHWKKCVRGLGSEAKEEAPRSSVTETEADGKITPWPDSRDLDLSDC
Assay: Antagonist activity at human CB2R expressed in mouse AtT20 cells by FLIPR membrane potential assay
Measurement type: IC50 (nM)
# value in nM; strip the unit string

Recorded IC50 of O=C(NC12CC3CC(CC(C3)C1)C2)c1c[nH]c2c(Cl)ccc(Cl)c2c1=O , please.
1280

====

Test: Cytotoxicity against human HFF-1 cells assessed as reduction in cell viability incubated for 72 hrs by PrestoBlue reagent based cell viability assay
Format: toxicity
Measurement type: IC50 at 72 h (µM)
# value in µM; strip the unit string

smiles_entry=O=C(NCCc1ccc2c(c1)OCO2)c1cc2c(F)cc(F)cc2[nH]1 endpoint_result=81
smiles_entry=O=C(NC12CC3CC(CC(C3)C1)C2)c1c[nH]c2c(Cl)ccc(Cl)c2c1=O endpoint_result=7.04
smiles_entry=O=C(NCc1ccccc1)c1cc2c(F)cc(F)cc2[nH]1 endpoint_result=119
smiles_entry=O=C(Nc1nc2ccccc2[nH]1)c1cc2c(F)cc(F)cc2[nH]1 endpoint_result=115

Recorded IC50 at 72 h of O=C(NCc1ccc(F)cc1)c1cc2c(F)cc(F)cc2[nH]1 , please.
281

Recorded IC50 at 72 h of Cc1c(C(=O)c2cccc3ccccc23)c2cccc3c2n1[C@@H](CN1CCOCC1)CO3 , please.
0.023

Source listed as ChEMBL document CHEMBL5107937.
